biological target: T1, Human Siglec-12 (human, UniProt Q96PQ1 19-595); test: flow cytometry, CHO transfectants
T1 construct: Expressed on transfected CHO cells; also called HuSiglec-12
T1 sequence (Q96PQ1 19-595): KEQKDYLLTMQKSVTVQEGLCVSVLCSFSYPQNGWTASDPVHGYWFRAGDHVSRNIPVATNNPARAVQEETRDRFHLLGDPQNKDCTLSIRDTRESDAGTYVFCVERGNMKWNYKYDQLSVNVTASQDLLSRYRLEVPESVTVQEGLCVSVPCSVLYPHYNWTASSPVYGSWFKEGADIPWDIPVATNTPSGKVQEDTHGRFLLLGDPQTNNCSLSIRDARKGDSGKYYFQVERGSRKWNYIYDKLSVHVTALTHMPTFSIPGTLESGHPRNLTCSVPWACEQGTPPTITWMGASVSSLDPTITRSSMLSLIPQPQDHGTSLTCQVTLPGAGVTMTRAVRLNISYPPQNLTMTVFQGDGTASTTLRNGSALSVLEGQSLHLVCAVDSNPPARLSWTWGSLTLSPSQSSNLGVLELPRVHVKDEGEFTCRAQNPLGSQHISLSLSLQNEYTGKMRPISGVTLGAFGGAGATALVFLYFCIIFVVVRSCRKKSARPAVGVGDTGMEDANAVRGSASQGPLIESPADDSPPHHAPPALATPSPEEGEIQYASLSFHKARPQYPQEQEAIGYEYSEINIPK
Observed Property: binding result

[
  {
    "Binder": "mAb2 (antibody, human IgG1, V domains shown) VH: EVQLQESGPGLVKPSQSLSLTCTVTGYSITGGFAWNWIRQFPGNTLEWMGYIGYGGSTSYNPSLNSRISITRDTSKNHFFLQFNSVTTEDSATYYCARGDYLFAYWGQGTLVTVSA VL: DIVMTQSHKFMSTSVGDRVSITCKASQDVNTAVAWYQQKPGQSPKLLIYSASYRYTGVPDRFTGSGSGTDFTFTISSVQAEDLAVYYCQQHYSTPRTFGGGTKLEIK",
    "Observed Property": "binding result",
    "Measured": "binds"
  },
  {
    "Binder": "mAb4 (antibody, human IgG1, V domains shown) VH: DVQLVESGGDLVKPGGSLKLSCAASGFAFSSYDMSWVRQSPEKRLEWIAHIGSGGGNIYYPDTVKGRFTISRDNAKNTLYLQMRSLKSEDTAMYYCARLIFTTGFYGMDYWGQGTSVTVSS VL: DIQMTQTTSSLSASLGDRVTISCRASQDISSYLNWYQQKPDGTIKLLIYYTSRLHSGVPSRFSGSGSGTDYSLTISNLDQDDIATYFCQQGNALPWTFGGGTKLEIK",
    "Observed Property": "binding result",
    "Measured": "no binding"
  },
  {
    "Binder": "mAbF (antibody, human IgG1, V domains shown) VH: QVQLQQSGPEVVRPGVSVKISCKGSGYTFTDYSMHWVKQSHAKSLEWIGVISTYNGNTNYNQKFKGKATMTVDKSSSTAYMELARLTSEDSAIYYCARRGYYGSSSWFGYWGQGTLVTVSA VL: DIVMTQSQKFMSTSVGDRVSVTCKASQNVGTDVAWYQQKPGQSPEALIYSASYRYSGVPDRFTGSGSGADFTLTISNVQSEDLAEYFCQQYNSFPYTFGGGTKLEIK",
    "Observed Property": "binding result",
    "Measured": "no binding"
  },
  {
    "Binder": "mAb1 (antibody, human IgG1, V domains shown) VH: DVQLQESGPGLVKPSQSLSLTCTVTGYSITGGFAWNWIRQFPGNTLEWMGYIGYGGSTSYNPSLNSRISITRDTSKNHFFLQFNSVTTDDSATYYCARGDYLFAYWGQGTLVTVSA VL: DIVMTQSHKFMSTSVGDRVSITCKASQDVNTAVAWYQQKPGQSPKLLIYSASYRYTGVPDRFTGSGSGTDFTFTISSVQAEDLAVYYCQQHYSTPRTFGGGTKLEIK",
    "Observed Property": "binding result",
    "Measured": "binds"
  },
  {
    "Binder": "mAb5 (antibody, human IgG1, V domains shown) VH: EIQLQQSGPELEKPGASVKISCKASGYSFSDYNMNWVKQSNGKSLEWIGNIDPYYGATSYNQRFKGKATLTVDKSSSTAYMQLKSLTSEDSAVYYCARGDSLFAYWGHGTLVTVSA VL: DIVMTQSQEFMSTSLGDRVSVTCKASQNVGTNVAWYQQKPGQSPKALLYSASSRYSGVPDRFTGSGSGTDFTLTISNVQSEDLAEYFCQQYITYPYTFGGGTKLEIK",
    "Observed Property": "binding result",
    "Measured": "no binding"
  },
  {
    "Binder": "mAbE (antibody, human IgG1, V domains shown) VH: DVQLVESGGGLVQPGGSRKLSCAASGFTFSTFGMHWVRQAPEKGLEWVAYISSGSNAIYYADTVKGRFTISRDNPKNTLFLQMTSLRSEDTAMYYCASPGYGAWFAYWGQGTLVTVSA VL: ENVLTQSPAIMSASPGEKVTMTCRASSSVSSAYLHWYQQKSGASPKLWIYSTSNLASGVPARFSGSGSGTSYSLTISSVEAEDAATYYCQQYSAYPYTFGGGTKLEIK",
    "Observed Property": "binding result",
    "Measured": "no binding"
  },
  {
    "Binder": "mAbC (antibody, human IgG1, V domains shown) VH: QIQLVQSGPELKKPGETVKISCKASGYTFTNYEMNWVKEAPGKGLKWMGWINTYTGESTYADDFKGRFAFSLETSASTVYLQINNLKDEDVATYFCVRDDYGRSYGFAYWGQGTLVTVSA VL: NIVLTQSPASLTVSLGQRANISCRASESVDSYGNSFMHWYQQKPGQPPKLLIYLASKLESGVPARFSGSGSRTDFTLTIDPVETDDAATYYCHQNNEDPPWTFGGGTKLEIK",
    "Observed Property": "binding result",
    "Measured": "no binding"
  },
  {
    "Binder": "mAbB (antibody, human IgG1, V domains shown) VH: QVQLQQPGAELVKPGASVKLSCKASVYTFTSYWMHWVKQRPGQGLEWIGEINPSNGHTNYNEKFKTKAKLTVDKSSSTAYMQLSSLTSEDSAVYFCANGVETYDFDDAMDYWGQGTSVTVSS VL: DIQMTQTTSSLSASLGDRVTISCRASQDINNYLNWYQQKPDGTVKLLIYFTSRLHSGVPSRFSGSGSGTDYSLTISNLEQEDIATYFCQQGDTFPFTFGGGTKLEIK",
    "Observed Property": "binding result",
    "Measured": "no binding"
  },
  {
    "Binder": "mAbA (antibody, human IgG1, V domains shown) VH: QVQLQQPGAELVKPGSPVKLSCKASYFTFTSYWMHWVRQRPGQGLEWIGEINPSNGHTNYNEKFESKATLTVDRSSSTAYMQLSSLTSEDSAVFYCANGVESYDFDDALDYWGQGTSVTVSS VL: DIQMTQTTSSLSASLGDRVTISCRASQDINNYLNWYQQKPDGTIKLLIYYTSRLHSGVPSRFSGSGSGTDYSLTINNLEQEDIATYFCQQGNTLPFTFGGGTKLEIK",
    "Observed Property": "binding result",
    "Measured": "no binding"
  },
  {
    "Binder": "mAb6 (antibody, human IgG1, V domains shown) VH: EIQLQQSGPELEKPGASVKISCKASGYSFSDYNMNWVKQSNGKSLEWIGNIDPYYGATSYNQRFKGKATLTVDKSSSTAYMQLKSLTSEDSAVYYCARGDSLFAYWGQGTLVTVSA VL: DIVMTQSQEFMSTSLGDRVSVTCKASQNVGTNVAWYQQKPGQSPKALLYSASSRYSGVPDRFTGSGSGTDFTLTINNMQSEDLAEYFCQQYITYPYTFGGGTKLEIK",
    "Observed Property": "binding result",
    "Measured": "no binding"
  },
  {
    "Binder": "mAbD (antibody, human IgG1, V domains shown) VH: QIQLVQSGPELKKPGETVKISCKASGYTFTDYSMHWVKQAPGKGLKWMGWIITETGEPTYADDFRGRFAFSLETSANTAYLQINNLKNEDTATYFCARDFDGYWGQGTTLTVSS VL: DILMTQSPASLSASVGETVTITCRASENIYSYLAWYQQKRGKSPQFLVYNAKTLTEGVPSRFRGSGSGTQFSLKINSLQPEDFGTYYCQHHYGFPWTFGGGTKLEIK",
    "Observed Property": "binding result",
    "Measured": "no binding"
  }
]
